- TARGET ENTITY: IL23R_huFC (human) (UniProt Q5VWK5)
- Sequence (Q5VWK5 24-353): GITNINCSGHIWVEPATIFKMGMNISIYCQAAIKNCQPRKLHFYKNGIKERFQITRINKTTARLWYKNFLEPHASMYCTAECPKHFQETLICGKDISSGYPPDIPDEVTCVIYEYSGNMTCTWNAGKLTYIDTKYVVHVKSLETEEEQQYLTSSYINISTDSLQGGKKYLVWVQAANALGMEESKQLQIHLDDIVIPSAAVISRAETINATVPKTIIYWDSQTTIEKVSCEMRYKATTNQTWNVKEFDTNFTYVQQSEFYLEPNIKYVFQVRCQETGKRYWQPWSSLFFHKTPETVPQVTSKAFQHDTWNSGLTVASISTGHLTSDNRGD
- PROTOCOL NOTES: human ELISA vs IL-23
pIC50: −log10 of the molar value. *1 amine or outer side, *2 acyl side, *3 side chain or, on linkers, in order; H or OH if unused. Bridges are numbered along the chain shown (N, C = ends). Primed or numbered codes have the meaning given here. [ ]: non-standard residue; d: D form. Phe(4-OMe)(4) = O-methyl-L-tyrosine, COc1ccc(C[C@H](N[*:1])C(=O)[*:2])cc1; 2Nal = N[C@@H](Cc1ccc2ccccc2c1)C(=O)O; AEF = NCCOc1ccc(C[C@H](N)C(=O)O)cc1; Cit = NC(=O)NCCC[C@H](N)C(=O)O; Orn = NCCC[C@H](N)C(=O)O; Abu = CC[C@H](N)C(=O)O; Dap = NC[C@H](N)C(=O)O
Reported pIC50 is given for each of the following binders.

Ac-[Abu]QTWQC[AEF][2Nal][Cit][Dap]NG-NH2 (thioether 1-6) [Ac-Cyclo-[[Abu]-QTWQC]-[Phe[4-(2-aminoethoxy)]]-[2-Nal]-[Cit]-[Dap]-NG-NH2]	7.60 to 8.00

pIC50 reading for Ac-[Abu]QTWQC[Phe(4-OMe)(4)][2Nal][Orn][Dap]NG-NH2 (thioether 1-6) [Ac-Cyclo-[[Abu]-QTWQC]-[Phe(4-OMe)]-[2-Nal]-[Orn]-[Dap]-NG-NH2] : 6.00 to 7.00
